The origin of these recorded values is patent US20260287586A1.

# Test system: Jurkat, clone E6-1
# Procedure summary: Cell proliferation assay (CCK-8 or CellTiter-Glo, 72 hours)
# Type: cell-based
# Test context: Homo sapiens, ALL, SDHB missense_variant p.A15T, read-out: Antiproliferation activity IC50, mean ± SD
Endpoint name: pIC50
For clarity, pIC50 is expressed as the negative log10 of concentration in mol/L.

Requested field: pIC50. Item: COc1cc2c(Oc3ccc4[nH]c(C)cc4c3F)ccnc2cc1OCC1(N)CC1 [Anlotinib]
5.71

Item CC1(COc2ccc3c(c2)ncn3-c2ccc3cccc(N4CCC(N)CC4)c3n2)COC1 [Crenolanib] has what recorded pIC50?
5.55

// returns reported pIC50 for input Cc1cn(-c2cc(NC(=O)c3ccc(C)c(Nc4nccc(-c5cccnc5)n4)c3)cc(C(F)(F)F)c2)cn1 [Nilotinib]
5.06

// next item, pIC50 requested
Query (compound): Cc1ccc(NC(=O)c2ccc(CN3CCN(C)CC3)cc2)cc1Nc1nc(-c2cccnc2)cs1 [Masitinib] ; field requested: pIC50
5.12
